target desc: Frizzled-1 (Homo sapiens)
method: Agonist activity at frizzled-1 (unknown origin) expressed in human HEK293superTOP flash cells by luciferase reporter gene assay
Type: functional, cell-based
condition details: HEK293
Calls of active or inactive are those of the source. No cut-off for these calls is given here. Residues, ends and D or L forms follow the SMILES beside them.
attribute measured: Activity

{"compound": "CSCC[C@H](NC(=O)CNC(=O)[C@H](CO)NC(=O)[C@H](CCCCN)NC(=O)[C@H](CC(N)=O)NC(=O)[C@H](CS)NC(C)=O)C(=O)N[C@@H](CC(=O)O)C(=O)NCC(=O)N[C@@H](CS)C(=O)N[C@@H](CCC(=O)O)C(=O)N[C@@H](CC(C)C)C(N)=O (Ac-CNKSGMDGCEL-NH2)", "observed value": "inactive"}
{"compound": "CSCC[C@H](NC(C)=O)C(=O)N[C@@H](CC(N)=O)C(=O)N[C@@H](CCCNC(=N)N)C(=O)N[C@@H](Cc1cnc[nH]1)C(=O)N[C@@H](CC(N)=O)C(=O)N[C@@H](CC(N)=O)C(=O)N[C@@H](CCC(=O)O)C(=O)N[C@@H](C)C(=O)NCC(=O)N[C@@H](CCCNC(=N)N)C(N)=O (Ac-MNRHNNEAGR-NH2)", "observed value": "inactive"}
{"compound": "CC(=O)NCC(=O)N[C@@H](CO)C(=O)N[C@@H](CCCCN)C(=O)NCC(=O)N[C@H](C(=O)N[C@@H](CCC(N)=O)C(=O)NCC(=O)N[C@@H](CCCNC(=N)N)C(=O)N[C@@H](C)C(=O)N[C@@H](CS)C(=O)N[C@@H](CC(N)=O)C(N)=O)[C@@H](C)O (Ac-GSKGTQGRACN-NH2)", "observed value": "inactive"}

---

target desc: Frizzled-2 (Rattus norvegicus) (UniProt Q08464)
Sequence (Q08464 29-570 limits assumed): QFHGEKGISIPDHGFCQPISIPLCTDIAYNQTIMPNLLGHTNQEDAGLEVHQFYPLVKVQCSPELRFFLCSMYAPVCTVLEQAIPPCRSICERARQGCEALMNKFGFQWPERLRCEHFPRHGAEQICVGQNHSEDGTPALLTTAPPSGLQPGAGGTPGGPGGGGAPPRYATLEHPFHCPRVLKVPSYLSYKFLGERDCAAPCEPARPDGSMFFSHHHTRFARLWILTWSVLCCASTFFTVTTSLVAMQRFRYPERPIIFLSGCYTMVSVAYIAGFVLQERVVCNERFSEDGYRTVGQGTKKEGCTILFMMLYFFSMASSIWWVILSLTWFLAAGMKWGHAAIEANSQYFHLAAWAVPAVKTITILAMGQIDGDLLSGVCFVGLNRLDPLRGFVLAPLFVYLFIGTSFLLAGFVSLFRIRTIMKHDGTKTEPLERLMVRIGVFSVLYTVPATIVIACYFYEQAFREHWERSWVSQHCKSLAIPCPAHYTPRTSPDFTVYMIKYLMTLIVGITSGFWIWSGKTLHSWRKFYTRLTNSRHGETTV
method: Antagonist activity at Wnt3a-stimulated rat frizzled-2 expressed in CHO cells up to 10 uM incubated for 24 hrs by luciferase reporter gene assay
Type: cell-based
condition details: dose microM <=10, time 24.0 hrs
Calls of active or inactive are those of the source. No cut-off for these calls is given here. Residues, ends and D or L forms follow the SMILES beside them.
attribute measured: inhibition

{"compound": "CSCC[C@H](NC(=O)CNC(=O)[C@H](CCC(=O)O)NC(=O)[C@H](CO)NC(=O)[C@@H](NC(=O)[C@H](CCCCN)NC(=O)[C@H](CC(N)=O)NC(=O)[C@H](CS)NC(C)=O)[C@@H](C)O)C(=O)N[C@@H](C)C(=O)NCC(=O)N[C@@H](CS)C(=O)N[C@@H](CCC(=O)O)C(=O)N[C@@H](CC(C)C)C(N)=O (Ac-CNKTSEGMAGCEL-NH2)", "observed value": "inactive"}
{"compound": "CSCC[C@H](NC(=O)CNC(=O)[C@H](CCC(=O)O)NC(=O)[C@H](CO)NC(=O)[C@@H](NC(=O)[C@H](CCCCN)NC(=O)[C@H](CC(N)=O)NC(=O)[C@H](C)NC(C)=O)[C@@H](C)O)C(=O)N[C@@H](CC(=O)O)C(=O)NCC(=O)N[C@@H](CS)C(=O)N[C@@H](CCC(=O)O)C(=O)N[C@@H](CC(C)C)C(N)=O (Ac-ANKTSEGMDGCEL-NH2)", "observed value": "inactive"}
{"compound": "CSCC[C@H](NC(=O)CNC(=O)[C@H](CCC(=O)O)NC(=O)[C@H](C)NC(=O)[C@@H](NC(=O)[C@H](CCCCN)NC(=O)[C@H](CC(N)=O)NC(=O)[C@H](CS)NC(C)=O)[C@@H](C)O)C(=O)N[C@@H](CC(=O)O)C(=O)NCC(=O)N[C@@H](CS)C(=O)N[C@@H](CCC(=O)O)C(=O)N[C@@H](CC(C)C)C(N)=O (Ac-CNKTAEGMDGCEL-NH2)", "observed value": "inactive"}
